System: human recombinant carboxylesterases
ASSAY DETAILS: In vitro metabolic stability (rate of metabolite formation) in human recombinant carboxylesterases
Type: in vitro ADME
CONDITIONS USED: human recombinant carboxylesterases 0.1 mg/mL; metabolite Gatifloxacin; 1 μM test compound, pH 6.0, 37° C.
PROPERTY: Rate of formation Metabolite 2 (Gatifloxacin) (nM/min/mg)
Give the value in nM/min/mg but do not write nM/min/mg after it.

Looking up COc1c(N2CCNC(C)C2)c(F)cc2c(=O)c(C(=O)OC(C)OC(=O)OCC(=O)[C@]3(O)CC[C@@H]4[C@H]5CCC6=CC(=O)C=C[C@@]6(C)C5[C@H](O)C[C@]43C)cn(C3CC3)c12 (relative stereo) , I found its Rate of formation Metabolite 2 (Gatifloxacin) recorded as 419

Looking up COc1c(N2CCN(C(=O)OCOC(=O)CCC(=O)N[C@@H](C(=O)OCC(=O)[C@]3(O)CCC4C5CCC6=CC(=O)C=C[C@@]6(C)C5[C@H](O)C[C@]43C)C(C)C)C(C)C2)c(F)cc2c(=O)c(C(=O)O)cn(C3CC3)c12 (relative stereo) , I found its Rate of formation Metabolite 2 (Gatifloxacin) recorded as 36.5

* * *

Tested on: human recombinant carboxylesterases
ASSAY DETAILS: In vitro metabolic stability (rate of metabolite formation) in human recombinant carboxylesterases
Type: in vitro ADME
CONDITIONS USED: human recombinant carboxylesterases 0.1 mg/mL; metabolite Moxifloxacin; 1 μM test compound, pH 6.0, 37° C.
PROPERTY: Rate of formation Metabolite 2 (Moxifloxacin) (nM/min/mg)
Give the value in nM/min/mg but do not write nM/min/mg after it.

Looking up COc1c(N2C[C@H]3CCCN[C@H]3C2)c(F)cc2c(=O)c(C(=O)OCCCOC(=O)c3ccc(C(=O)OCC(=O)[C@@]4(O)[C@H](C)C[C@H]5[C@@H]6CCC7=CC(=O)C=C[C@]7(C)[C@@]6(F)[C@@H](O)C[C@@]54C)cc3)cn(C3CC3)c12 (relative stereo) , I found its Rate of formation Metabolite 2 (Moxifloxacin) recorded as 0.717

Looking up COc1c(N2C[C@@H]3CCCN[C@@H]3C2)c(F)cc2c(=O)c(C(=O)OC(C)OC(=O)OCC(=O)[C@]3(O)CC[C@@H]4[C@H]5CCC6=CC(=O)C=C[C@@]6(C)C5[C@H](O)C[C@]43C)cn(C3CC3)c12 (relative stereo) , I found its Rate of formation Metabolite 2 (Moxifloxacin) recorded as 482

Looking up COc1c(N2CC3CCCN(C(=O)OCOC(=O)CCC(=O)N[C@@H](C(=O)OCC(=O)[C@]4(O)CCC5C6CCC7=CC(=O)C=C[C@@]7(C)C6[C@H](O)C[C@]54C)C(C)C)C3C2)c(F)cc2c(=O)c(C(=O)O)cn(C3CC3)c12 (relative stereo) , I found its Rate of formation Metabolite 2 (Moxifloxacin) recorded as 18.5

Looking up COc1c(N2CC3CCCN(C(=O)OCOC(=O)CCC(=O)OCC(=O)[C@]4(O)CC[C@@H]5[C@H]6CCC7=CC(=O)C=C[C@@]7(C)[C@@H]6[C@H](O)C[C@]54C)C3C2)c(F)cc2c(=O)c(C(=O)O)cn(C3CC3)c12 (relative stereo) , I found its Rate of formation Metabolite 2 (Moxifloxacin) recorded as 350

Looking up COc1c(N2C[C@@H]3CCCN[C@@H]3C2)c(F)cc2c(=O)c(C(=O)OCOC(=O)OCC(=O)[C@]3(O)CC[C@@H]4[C@H]5CCC6=CC(=O)C=C[C@@]6(C)C5[C@H](O)C[C@]43C)cn(C3CC3)c12 (relative stereo) , I found its Rate of formation Metabolite 2 (Moxifloxacin) recorded as 644

* * *

I'd be grateful if you could share measured Rate of formation Metabolite 1 (Prednisolone) for these entries.
Tested on: human recombinant carboxylesterases
ASSAY DETAILS: In vitro metabolic stability (rate of metabolite formation) in human recombinant carboxylesterases
Assay type: in vitro ADME
CONDITIONS USED: human recombinant carboxylesterases 0.1 mg/mL; metabolite Prednisolone; 1 μM test compound, pH 6.0, 37° C.
Give the value in nM/min/mg but do not write nM/min/mg after it.

Measured Rate of formation Metabolite 1 (Prednisolone) for this entry COc1c(N2CC3CCCN(C(=O)OCOC(=O)CCC(=O)N[C@@H](C(=O)OCC(=O)[C@]4(O)CCC5C6CCC7=CC(=O)C=C[C@@]7(C)C6[C@H](O)C[C@]54C)C(C)C)C3C2)c(F)cc2c(=O)c(C(=O)O)cn(C3CC3)c12 (relative stereo) [Compound 61] on human recombinant carboxylesterases: 11.8

Measured Rate of formation Metabolite 1 (Prednisolone) for this entry COc1c(N2C[C@@H]3CCCN[C@@H]3C2)c(F)cc2c(=O)c(C(=O)OC(C)OC(=O)OCC(=O)[C@]3(O)CC[C@@H]4[C@H]5CCC6=CC(=O)C=C[C@@]6(C)C5[C@H](O)C[C@]43C)cn(C3CC3)c12 (relative stereo) [Compound 65] on human recombinant carboxylesterases: 364

Measured Rate of formation Metabolite 1 (Prednisolone) for this entry COc1c(N2CCNC(C)C2)c(F)cc2c(=O)c(C(=O)OCOC(=O)OCC(=O)[C@]3(O)CC[C@@H]4[C@H]5CCC6=CC(=O)C=C[C@@]6(C)C5[C@H](O)C[C@]43C)cn(C3CC3)c12 (relative stereo) [Compound 42] on human recombinant carboxylesterases: 633

Measured Rate of formation Metabolite 1 (Prednisolone) for this entry COc1c(N2C[C@@H]3CCCN[C@@H]3C2)c(F)cc2c(=O)c(C(=O)OCOC(=O)OCC(=O)[C@]3(O)CC[C@@H]4[C@H]5CCC6=CC(=O)C=C[C@@]6(C)C5[C@H](O)C[C@]43C)cn(C3CC3)c12 (relative stereo) [Compound 64] on human recombinant carboxylesterases: 641

* * *

Tested on: human recombinant carboxylesterases
ASSAY DETAILS: In vitro metabolic stability (rate of metabolite formation) in human recombinant carboxylesterases
Type: in vitro ADME
CONDITIONS USED: human recombinant carboxylesterases 0.1 mg/mL; metabolite Gatifloxacin; 1 μM test compound, pH 6.0, 37° C.
PROPERTY: Rate of formation Metabolite 2 (Gatifloxacin) (nM/min/mg)
Give the value in nM/min/mg but do not write nM/min/mg after it.

Looking up COc1c(N2CCNC(C)C2)c(F)cc2c(=O)c(C(=O)OCOC(=O)CCC(=O)OCC(=O)[C@]3(O)CC[C@@H]4[C@H]5CCC6=CC(=O)C=C[C@@]6(C)C5[C@H](O)C[C@]43C)cn(C3CC3)c12 (relative stereo) , I found its Rate of formation Metabolite 2 (Gatifloxacin) recorded as 760

Looking up COc1c(N2CCNC(C)C2)c(F)cc2c(=O)c(C(=O)OCCCOC(=O)CCC(=O)OCC(=O)[C@]3(O)[C@@H](C)C[C@@H]4[C@H]5CCC6=CC(=O)C=C[C@@]6(C)[C@]5(F)[C@H](O)C[C@]43C)cn(C3CC3)c12 (relative stereo) , I found its Rate of formation Metabolite 2 (Gatifloxacin) recorded as 2.44

Looking up COc1c(N2CCN(C(=O)OCOC(=O)CCC(=O)OCC(=O)[C@@]3(O)[C@H](C)CC4C5CCC6=CC(=O)C=C[C@]6(C)[C@@]5(F)[C@@H](O)C[C@@]43C)C(C)C2)c(F)cc2c(=O)c(C(=O)O)cn(C3CC3)c12 (relative stereo) , I found its Rate of formation Metabolite 2 (Gatifloxacin) recorded as 56

Looking up COc1c(N2CCN(C(=O)OCOC(=O)CCC(=O)OCC(=O)[C@@]3(O)[C@@H](C)CC4C5CCC6=CC(=O)C=C[C@]6(C)[C@@]5(F)[C@@H](O)C[C@@]43C)C(C)C2)c(F)cc2c(=O)c(C(=O)O)cn(C3CC3)c12 (relative stereo) , I found its Rate of formation Metabolite 2 (Gatifloxacin) recorded as 112

Looking up COc1c(N2CCNC(C)C2)c(F)cc2c(=O)c(C(=O)OCOC(=O)OCC(=O)[C@]3(O)CC[C@@H]4[C@H]5CCC6=CC(=O)C=C[C@@]6(C)C5[C@H](O)C[C@]43C)cn(C3CC3)c12 (relative stereo) , I found its Rate of formation Metabolite 2 (Gatifloxacin) recorded as 668

* * *

System: human recombinant carboxylesterases
ASSAY DETAILS: In vitro metabolic stability (rate of metabolite formation) in human recombinant carboxylesterases
Assay type: in vitro ADME
CONDITIONS USED: human recombinant carboxylesterases 0.1 mg/mL; metabolite Prednisolone; 1 μM test compound, pH 6.0, 37° C.
Text: Dutch Belted rabbits were euthanized with an overdose of sodium pentobarbital. The corneas were collected and homogenized in ice-cold potassium chloride solution (pH=7.4). […] Prior to storing the homogenates an aliquot was removed for determination of protein concentrations by calculating the 260 nm absorbance using a spectrophotometer. […]
I'd be grateful if you could share measured Rate of formation Metabolite 1 (Prednisolone) for these entries.
Give the value in nM/min/mg but do not write nM/min/mg after it.

Looking up COc1c(N2CCNC(C)C2)c(F)cc2c(=O)c(C(=O)OCOC(=O)CCC(=O)OCC(=O)[C@]3(O)CC[C@@H]4[C@H]5CCC6=CC(=O)C=C[C@@]6(C)C5[C@H](O)C[C@]43C)cn(C3CC3)c12 (relative stereo) , I found its Rate of formation Metabolite 1 (Prednisolone) recorded as 365

Looking up COc1c(N2CCN(C(=O)OCOC(=O)CCC(=O)N[C@@H](C(=O)OCC(=O)[C@]3(O)CCC4C5CCC6=CC(=O)C=C[C@@]6(C)C5[C@H](O)C[C@]43C)C(C)C)C(C)C2)c(F)cc2c(=O)c(C(=O)O)cn(C3CC3)c12 (relative stereo) , I found its Rate of formation Metabolite 1 (Prednisolone) recorded as 17.3

Looking up COc1c(N2CC3CCCN(C(=O)OCOC(=O)CCC(=O)OCC(=O)[C@]4(O)CC[C@@H]5[C@H]6CCC7=CC(=O)C=C[C@@]7(C)[C@@H]6[C@H](O)C[C@]54C)C3C2)c(F)cc2c(=O)c(C(=O)O)cn(C3CC3)c12 (relative stereo) , I found its Rate of formation Metabolite 1 (Prednisolone) recorded as 416

Looking up COc1c(N2CCNC(C)C2)c(F)cc2c(=O)c(C(=O)OC(C)OC(=O)OCC(=O)[C@]3(O)CC[C@@H]4[C@H]5CCC6=CC(=O)C=C[C@@]6(C)C5[C@H](O)C[C@]43C)cn(C3CC3)c12 (relative stereo) , I found its Rate of formation Metabolite 1 (Prednisolone) recorded as 298
